- target: P-gp (Homo sapiens)
- procedure-details: [3H]daunomycin radioactive substrate accumulation assay in MCF-7/DX1 cells
- Assay type: cell-based
- cond: read-out: IC50, cellular accumulation of [3H]daunomycin, [3H]daunomycin 0.25 µCi/mL, scintillation counting
pIC50: −log10 of the molar value.
assay-readout: pIC50

1. COc1ccc2c3c1O[C@H]1C[C@@H](OC(=O)CCCCCCCCC(=O)O[C@H]4C=C[C@@]56CCN(C)Cc7ccc(OC)c(c75)O[C@H]6C4)C=C[C@@]31CCN(C)C2 [Gal-2]    5.70

###

- target: P-gp (Homo sapiens, UniProt P08183)
- Sequence (P08183 whole entry): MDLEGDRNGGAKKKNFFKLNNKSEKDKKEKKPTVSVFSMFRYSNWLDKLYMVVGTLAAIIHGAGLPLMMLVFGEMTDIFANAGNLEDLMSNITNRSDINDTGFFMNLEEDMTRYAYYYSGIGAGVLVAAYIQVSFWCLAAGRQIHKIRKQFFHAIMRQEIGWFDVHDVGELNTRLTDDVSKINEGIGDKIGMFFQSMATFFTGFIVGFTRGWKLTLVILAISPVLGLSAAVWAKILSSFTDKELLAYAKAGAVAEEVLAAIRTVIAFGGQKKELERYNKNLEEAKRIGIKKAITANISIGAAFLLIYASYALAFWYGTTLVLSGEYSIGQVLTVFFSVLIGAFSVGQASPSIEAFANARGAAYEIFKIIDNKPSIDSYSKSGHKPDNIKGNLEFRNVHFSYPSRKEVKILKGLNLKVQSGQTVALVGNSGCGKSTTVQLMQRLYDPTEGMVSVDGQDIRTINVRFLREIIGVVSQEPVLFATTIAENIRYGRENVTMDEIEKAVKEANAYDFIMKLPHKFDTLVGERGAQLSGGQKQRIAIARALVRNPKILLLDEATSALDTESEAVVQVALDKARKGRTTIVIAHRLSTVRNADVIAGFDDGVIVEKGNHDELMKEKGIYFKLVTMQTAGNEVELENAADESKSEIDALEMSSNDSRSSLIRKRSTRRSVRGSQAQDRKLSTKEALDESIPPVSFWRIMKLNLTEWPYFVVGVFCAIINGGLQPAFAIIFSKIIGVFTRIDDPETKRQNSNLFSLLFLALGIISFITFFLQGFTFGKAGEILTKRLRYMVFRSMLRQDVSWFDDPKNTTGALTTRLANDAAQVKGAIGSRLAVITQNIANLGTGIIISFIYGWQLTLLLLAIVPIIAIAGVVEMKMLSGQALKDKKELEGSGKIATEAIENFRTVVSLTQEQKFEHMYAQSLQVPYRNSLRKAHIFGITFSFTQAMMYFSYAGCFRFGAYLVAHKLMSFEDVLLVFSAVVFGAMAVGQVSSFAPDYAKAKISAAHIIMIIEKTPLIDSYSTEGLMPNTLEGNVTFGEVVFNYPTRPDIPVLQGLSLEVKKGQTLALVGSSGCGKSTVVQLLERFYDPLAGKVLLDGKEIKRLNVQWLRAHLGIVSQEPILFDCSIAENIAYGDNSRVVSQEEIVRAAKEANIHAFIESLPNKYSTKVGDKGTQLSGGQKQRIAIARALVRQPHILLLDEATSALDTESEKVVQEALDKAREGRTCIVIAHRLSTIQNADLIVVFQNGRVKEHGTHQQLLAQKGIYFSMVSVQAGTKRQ
- procedure-details: rhodamine 123 accumulation assay by flow cytometry in MCF-7/DX1 cells
- Type: cell-based
assay-readout: IC50

1. COc1ccc2c3c1O[C@H]1C[C@@H](O)C=C[C@@]31CCN(C)C2 [galantamine, reference compound]    > 100 µM
